- Procedure Summary: qHTS assay to identify small molecule antagonists of the sonic hedgehog signaling (Shh) pathway (AID 1259369); note: nearly all actives have a fitted effect of over 45% in size
- Experimental Setup: NIH/3T3 Gli1-Luc reporter, Shh antagonist, luminescence 24 h; series mostly up to 92.4 µM
Results filed as inconclusive are left out. The source made the active and inactive calls. Calls come from the whole dose curve.
I would appreciate it if you answered using one of these outcomes: t for active, f for inactive

Answered cases to consult:
# input Hey, what did the test say about OCC(CO)N[C@H]1C[C@](O)(CO)[C@@H](O)[C@H](O)[C@H]1O ?
# output f

# input Hey, what did the test say about CCOc1ccccc1C(N)=O ?
# output f

# input Hey, what did the test say about Cc1cc(C(C)(C)C)c(O)c(C(C)(C)C)c1 ?
# output f

# input Hey, what did the test say about Cc1cccc([N+](=O)[O-])c1C(=O)O ?
# output f

# input Hey, what did the test say about O=C(O[C@@H]1Cc2c(O)cc(O)cc2O[C@@H]1c1cc(O)c(O)c(O)c1)c1cc(O)c(O)c(O)c1 ?
# output t

# input Hey, what did the test say about C=C(C)C1CC=C(C)C(OC(C)=O)C1 (configuration not stated) ?
# output f

# input Hey, what did the test say about Cc1ccc(S(=O)(=O)Oc2ccc(N=Nc3ccc(-c4ccc(N=Nc5c(O)ccc6cc(S(=O)(=O)O)cc(S(=O)(=O)O)c56)c(C)c4)cc3C)cc2)cc1 ?
# output f

# input Hey, what did the test say about Cc1ccnc2c1NC(=O)c1cccnc1N2C1CC1 ?
# output f

# input Hey, what did the test say about NCCCCCC(=O)O ?
# output f

# input Hey, what did the test say about CCN(CC)C(=O)Nc1ccc(OCC(O)CNC(C)(C)C)c(C(C)=O)c1 (configuration not stated) ?
# output f

***
# input Hey, what did the test say about COC(=O)c1cccc(C(=O)OC)c1 ?
# output f

# input Hey, what did the test say about CCCCCCC(O)CCCCCCCCCCC(=O)O (configuration not stated) ?
# output t

The reported measurements were obtained from PubChem BioAssay (Tox21).
